- assay notes: Stat Signaling Pathway (AID 446);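 note: ME-180 cervical cancer cells given 40 pM IL-6 alongside compound; SIE-controlled beta-lactamase reporter measured as 460/530 nm FRET emission ratio; % is set by controls: 0 for no effect and ±100 for the full control effect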
- experimental conditions: ME-180 (cervical carcinoma) SIE beta-lactamase reporter, IL-6 stimulated, 5 h; at 17.2 µM (top of the series)
Results filed as inconclusive are left out. Active and inactive are the calls of the source. Calls come from the whole dose curve; as a rule, active = well fitted curve in either direction with a large enough effect (not every such curve was filed as active); inconclusive = small, poorly fitted or top-dose-only effect, or another doubt; inactive = flat fitted curve, though single readings scatter.
For each entry below, report its activity, negative = inhibition value.

INSERT INTO assay_data (input_smiles, endpoint_result) VALUES
  ('Fc1ccc(C(c2ccc(F)cc2)N2CCN(C/C=C\c3ccccc3)CC2)cc1', '10.1% (inactive)'),
  ('CN(C)C/C=C(\c1ccc(Br)cc1)c1cccnc1', '7.82% (inactive)'),
  ('C[C@H](N=C(NC#N)Nc1ccncc1)C(C)(C)C', '-8.19% (inactive)'),
  ('Cc1ccc(/C(=C/CN2CCCC2)c2ccccn2)cc1', '6.54% (inactive)'),
  ('CCN(CC)CCOC(=O)C1(c2ccc([N+](=O)[O-])cc2)CCCC1', '6.83% (inactive)'),
  ('CCCCC[C@H](O)/C=C/C1=C(CCCCCCC(=O)O)C(=O)CC1', '0.776% (inactive)'),
  ('CC(=O)[C@H]1[C@H](C#N)C[C@H]2[C@@H]3CC=C4C[C@@H](O)CC[C@]4(C)[C@H]3CC[C@@]21C', '2.76% (inactive)'),
  ('CN(C)CCCSC(=N)N', '-1.52% (inactive)'),
  ('CC(C)NC[C@@H](O)COc1cccc2[nH]ccc12', '19% (inactive)'),
  ('C[C@@H](C(=O)O)c1ccc(-c2ccccc2)c(F)c1', '1.05% (inactive)');

Answer for every listed entry: what is its activity, negative = inhibition? The entries follow.
1. CSc1ccc2c(c1)[C@H](N1CCN(C)CC1)Cc1ccccc1S2
2. CCN(Cc1ccncc1)C(=O)[C@@H](CO)c1ccccc1
3. CNCC[C@H](Oc1ccccc1OC)c1ccccc1
4. CC(C)NC[C@H](O)c1ccc2ccccc2c1

Output line:
1: -9.5% (inactive); 2: -6.07% (inactive); 3: -0.439% (inactive); 4: -5.4% (inactive)
